Assay Remarks: Mouse liver microsome stability assay
Type: in vitro ADME
Condition Context: 3 h at 37° C., LC-MS/MS, ± SEM of 3 biological replicates
Assignment: determine reported Metabolic Stability in Mouse Liver Microsomes (percent remaining) for the given molecules.
Respond with the bare value in %.

State the recorded Metabolic Stability in Mouse Liver Microsomes (percent remaining) for this entry: CC(=O)O[C@H]1C[C@@]2(C)[C@@H](C[C@@H](O)[C@H]3[C@@]4(C)CC[C@@H](O)[C@@H](C)[C@@H]4CC[C@@]32C)/C1=C(\CCC=C(Br)Br)C(=O)O 88

// query Metabolic Stability in Mouse Liver Microsomes (percent remaining) value for entry CC(=O)O[C@H]1C[C@@]2(C)[C@@H](C[C@@H](O)[C@H]3[C@@]4(C)CC[C@@H](O)[C@@H](C)[C@@H]4CC[C@@]32C)/C1=C(\CCC=C1CCCC1)C(=O)O 78

Please look up its Metabolic Stability in Mouse Liver Microsomes (percent remaining): CC(=O)O[C@H]1C[C@@]2(C)[C@@H](C[C@@H](O)[C@H]3[C@@]4(C)CC[C@@H](O)[C@@H](C)[C@@H]4CC[C@@]32C)/C1=C(\CCC=C1CCOCC1)C(=O)O 86

Param item = CC(=O)O[C@H]1C[C@@]2(C)[C@@H](C[C@@H](O)[C@H]3[C@@]4(C)CC[C@@H](O)[C@@H](C)[C@@H]4CC[C@@]32C)/C1=C(\CCC=C1CCCCC1)C(=O)O ; retrieve measured Metabolic Stability in Mouse Liver Microsomes (percent remaining). 61

---

Assay Remarks: Pharmacokinetic assessment in mice
Format: in vivo, C57BL/6 mice
Condition Context: female, C57BL/6, mouse, in vivo, ip; mice, 50 mg/kg intraperitoneal, serum, one-compartment model; read-out: AUC (converted)
Description: FIG. 3. A). Pharmacokinetic analysis of fusidic acid and FA-CP. […] The data are illustrated as the mean and represent the average of three independent experiments. The pharmacokinetic parameters illustrated above were calculated with a one-compartment model using a non-linear regression program (Phoenix WinNonlin Version 8.1, Certara USA Inc. Princeton NJ 08540 USA). B). […] The data shown as means±s.d. and statistical significance was determined by one-way ANOVA with Tukey's multiple comparisons. […]
Assay Metric: AUC (ng·h/mL)
Field format: number, assumed ng·h/mL, no unit text.

Bench note: what AUC did CC(=O)O[C@H]1C[C@@]2(C)[C@@H](C[C@@H](O)[C@H]3[C@@]4(C)CC[C@@H](O)[C@@H](C)[C@@H]4CC[C@@]32C)/C1=C(\CCC=C(C)C)C(=O)O show? 9360

---

Assay Remarks: Pharmacokinetic assessment in mice
Format: in vivo, C57BL/6 mice
Condition Context: female, C57BL/6, mouse, in vivo, ip, 50 mg/kg
Assay Metric: AUC (ng·h/mL)
Dear colleague, please return just the value in ng·h/mL, with no unit written.

Which value of AUC has been reported for CC(=O)O[C@H]1C[C@@]2(C)[C@@H](C[C@@H](O)[C@H]3[C@@]4(C)CC[C@@H](O)[C@@H](C)[C@@H]4CC[C@@]32C)/C1=C(\CCC=C1CCCC1)C(=O)O [FA-CP] in the records? 11700

---

Assay Remarks: Pharmacokinetic assessment in mice
Assay type: in vivo, C57BL/6 mice
Condition Context: female, C57BL/6, mouse, in vivo, ip, 50 mg/kg
Assay Metric: Cmax (ng/mL)
Field format: number, assumed ng/mL, no unit text.

Quick check: Cmax of CC(=O)O[C@H]1C[C@@]2(C)[C@@H](C[C@@H](O)[C@H]3[C@@]4(C)CC[C@@H](O)[C@@H](C)[C@@H]4CC[C@@]32C)/C1=C(\CCC=C1CCCC1)C(=O)O ? 9760
